# Test system: rodent lifetime carcinogenesis bioassay, tumor incidence TD50
# assay.method.text: carcinogenic potency in animals, long-term in vivo studies, CPDB compilation (AID 1745844)
# condition.label: mouse; strain C3H/HeJ (MTV+); females; in feed; site: ovary; lesion: tubular adenoma; dosed 78 weeks; study length 78 weeks

smiles: CC/C(=C(/CC)c1ccc(O)cc1)c1ccc(O)cc1
unit.spec: mg/kg/day
TD50: 0.0222

* * *

# Tested on: rodent lifetime carcinogenesis bioassay, tumor incidence TD50
# assay.method.text: carcinogenic potency in animals, long-term in vivo studies, CPDB compilation (AID 1745844)
# condition.label: rat; strain Fischer 344; males; by gavage; site: adrenal gland + adrenal medulla; lesion: pheochromocytoma, benign + pheochromocytoma benign, bilateral; dosed 103 weeks; study length 105 weeks
measure: TD50 (mg/kg/day)

smiles: ClC(Cl)(Cl)C(Cl)(Cl)Cl
unit.spec: mg/kg/day
endpoint.result: 9.05
